# experimental_system: Nrg2 (UniProt P38082)
# Sequence: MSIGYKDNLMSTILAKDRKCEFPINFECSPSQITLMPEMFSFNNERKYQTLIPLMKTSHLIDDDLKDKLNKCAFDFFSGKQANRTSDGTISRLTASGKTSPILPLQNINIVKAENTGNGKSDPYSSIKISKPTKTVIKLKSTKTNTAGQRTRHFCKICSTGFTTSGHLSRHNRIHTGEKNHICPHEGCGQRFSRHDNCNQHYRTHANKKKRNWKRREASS
# test: PBM E-score (8-mer binding enrichment) (E-score (-0.5 to 0.5)); higher = stronger / more preferred TF binding
# recorded_conditions: protein concentration: 100 nM; construct: GST-full length
In all, about 33,000 sequences were measured (“E-score (-0.5 to 0.5)”: median about -8e-05, highest 2% from about 0.23 on). Only a selection was taken, and the highest values are over-represented in it overall.
Rule: 1 (yes) for PBM E-score not less than 0.2, 0 (no) for anything less.

>>> label_value("AACCCTGG")
"1 (yes)"
>>> label_value("GGCCCTTA")
"0 (no)"
>>> label_value("ACCCCTGG")
"0 (no)"
>>> label_value("GACCCTAA")
"1 (yes)"
>>> label_value("CCAACTAC")
"0 (no)"
>>> label_value("AACCCTGT")
"1 (yes)"
>>> label_value("GACCCTAC")
"0 (no)"
>>> label_value("AGGCCCCT")
"0 (no)"
>>> label_value("ACTTTAAG")
"1 (yes)"
>>> label_value("AACCCTAG")
"0 (no)"

* * *

# PBM E-score listing for each entry below
# experimental_system: Nrg2 (UniProt P38082)
# Sequence: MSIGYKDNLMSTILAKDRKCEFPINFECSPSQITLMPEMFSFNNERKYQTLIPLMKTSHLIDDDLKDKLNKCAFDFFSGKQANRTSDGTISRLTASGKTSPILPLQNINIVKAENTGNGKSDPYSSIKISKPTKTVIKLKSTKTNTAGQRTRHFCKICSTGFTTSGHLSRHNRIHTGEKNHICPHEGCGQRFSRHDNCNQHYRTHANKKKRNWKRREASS
# test: PBM E-score (8-mer binding enrichment) (E-score (-0.5 to 0.5)); higher = stronger / more preferred TF binding
# recorded_conditions: protein concentration: 100 nM; construct: GST-full length
The full ranking holds about 33,000 sequences; the median of “E-score (-0.5 to 0.5)” is about -8e-05, and the highest 2% start at about 0.23. This is one part of a sample in which the highest values are shown more often than they occur.
quantity_measured: PBM E-score

>>> reported_result("AAGACTCA")
-0.249
>>> reported_result("CATGAATC")
0.115
>>> reported_result("CTAGTTGA")
0.128

* * *

# experimental_system: Nrg2 (UniProt P38082)
# Sequence: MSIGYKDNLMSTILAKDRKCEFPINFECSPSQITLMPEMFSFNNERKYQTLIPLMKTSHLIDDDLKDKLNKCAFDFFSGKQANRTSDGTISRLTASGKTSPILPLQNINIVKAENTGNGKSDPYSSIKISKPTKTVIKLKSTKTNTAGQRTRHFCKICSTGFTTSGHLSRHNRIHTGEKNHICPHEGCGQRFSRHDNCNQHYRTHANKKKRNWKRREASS
# test: PBM E-score (8-mer binding enrichment) (E-score (-0.5 to 0.5)); higher = stronger / more preferred TF binding
# recorded_conditions: protein concentration: 100 nM; construct: GST-full length
In all, about 33,000 sequences were measured (“E-score (-0.5 to 0.5)”: median about -8e-05, highest 2% from about 0.23 on). The full list was thinned out, with the highest values kept by preference.
# PBM E-score listing for each entry below
quantity_measured: PBM E-score

>>> reported_result("AGAGGGAC")
-0.0381
>>> reported_result("AATGCGCA")
0.296
>>> reported_result("AATGCGCG")
0.177
>>> reported_result("ATTGCAAT")
0.243
>>> reported_result("ATGACAAG")
0.142
>>> reported_result("GCAGCGTA")
-0.128
>>> reported_result("ACAAGGAT")
-0.0601
>>> reported_result("AGCTTTAG")
-0.105
>>> reported_result("CCTGACTA")
0.172
>>> reported_result("TCAATTCA")
0.102
>>> reported_result("AGTTTCAG")
-0.0621
>>> reported_result("ACAGAGGC")
-0.172
>>> reported_result("GGTCTCGA")
0.0782
>>> reported_result("CGAATCAC")
0.117
>>> reported_result("CGCCAAAA")
0.119
>>> reported_result("ATGAGCAA")
0.121
>>> reported_result("AGCCCCAT")
-0.0124
>>> reported_result("ACTACAGA")
0.131
>>> reported_result("CAAGAACA")
0.007
>>> reported_result("GGCGCCTA")
-0.0964
>>> reported_result("GGAAGCAA")
-0.0162
>>> reported_result("ATTGCAAA")
0.127
>>> reported_result("CACGTAGG")
-0.156
>>> reported_result("ACAGGGAA")
0.0579
>>> reported_result("ATTACAGA")
0.0258
>>> reported_result("AGTTTCAC")
0.0923
>>> reported_result("ATGTGAGG")
-0.0251
>>> reported_result("AAGACAAC")
0.235
>>> reported_result("GAAGAACA")
0.155
>>> reported_result("CCATCCTC")
-0.111
>>> reported_result("ATCAACCG")
0.0105
>>> reported_result("AAGCGATT")
-0.0219
>>> reported_result("ACAGGGAG")
-0.147
>>> reported_result("TAAGAACA")
0.26
>>> reported_result("CACGATAC")
-0.129
>>> reported_result("AAGGGCCA")
-0.0108
>>> reported_result("CTAGATGA")
-0.0603
>>> reported_result("ACTTGTCA")
0.0495
>>> reported_result("CATGCGCA")
0.164
>>> reported_result("ACCGCAGA")
-0.0429
>>> reported_result("AAGACAAG")
-0.0376
>>> reported_result("AAGGGCAT")
-0.139
>>> reported_result("ACTAGGGC")
-0.0479
>>> reported_result("GTGACAAC")
0.112
>>> reported_result("GAGATACC")
0.127
>>> reported_result("CTCTTTTA")
-0.0622

* * *

# experimental_system: Nrg2 (UniProt P38082)
# Sequence: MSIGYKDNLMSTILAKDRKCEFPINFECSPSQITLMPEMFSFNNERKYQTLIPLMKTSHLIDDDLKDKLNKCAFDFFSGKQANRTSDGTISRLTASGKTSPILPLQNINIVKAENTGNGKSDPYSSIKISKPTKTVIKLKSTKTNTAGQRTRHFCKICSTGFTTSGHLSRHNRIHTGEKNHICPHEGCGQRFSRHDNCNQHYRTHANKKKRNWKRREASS
# test: PBM E-score (8-mer binding enrichment) (E-score (-0.5 to 0.5)); higher = stronger / more preferred TF binding
# recorded_conditions: protein concentration: 100 nM; construct: GST-full length
In all, about 33,000 sequences were measured (“E-score (-0.5 to 0.5)”: median about -8e-05, highest 2% from about 0.23 on). The sample as a whole holds a higher share of the highest values than the screen did.
Rule: y for PBM E-score not less than 0.2, n for anything less.

>>> label_value("CTGTCGAC")
"n"
>>> label_value("ATGGGTGC")
"n"
>>> label_value("ATGCTTTA")
"n"
>>> label_value("AATCGATA")
"n"
>>> label_value("CGCATATA")
"n"
>>> label_value("GTCGTTTA")
"n"
>>> label_value("GTGAACGA")
"n"
>>> label_value("AGGGTCGA")
"y"
>>> label_value("GACTGAGA")
"n"
>>> label_value("ATCGAGGG")
"n"
>>> label_value("CATCGAAA")
"n"
>>> label_value("AAATCGAC")
"y"
>>> label_value("CCCATACG")
"n"
>>> label_value("CAGATCAG")
"n"
>>> label_value("AAATCGAA")
"n"
>>> label_value("AACTAAGT")
"n"
>>> label_value("AACGATTC")
"n"
>>> label_value("TAATATAA")
"y"
>>> label_value("AGCGTTAC")
"n"
>>> label_value("AACCTCAG")
"n"
>>> label_value("AGGACAGA")
"n"
>>> label_value("CAATATAA")
"y"
>>> label_value("GTATCGAC")
"n"
>>> label_value("AAATATTA")
"y"
>>> label_value("TATATCGA")
"y"
>>> label_value("AGTGAGGC")
"n"
>>> label_value("GCCGACAC")
"n"
>>> label_value("TCCAGAGA")
"n"
>>> label_value("CCGCCTGA")
"n"
>>> label_value("AGCGTCGG")
"n"
>>> label_value("ACTTCCTG")
"n"
>>> label_value("TAATATGA")
"n"
>>> label_value("CGCATATC")
"y"
>>> label_value("AGCGTCGA")
"y"
>>> label_value("GCAACGAA")
"n"
>>> label_value("CTATCGAC")
"n"
>>> label_value("CGGGTCGA")
"n"
>>> label_value("AATCCTGC")
"n"
>>> label_value("AGGGTCGC")
"y"
>>> label_value("GAATATAA")
"n"
>>> label_value("CTGCTTTA")
"y"
>>> label_value("AATCGATC")
"n"
>>> label_value("GGTGCCTA")
"n"
>>> label_value("ATATCGAC")
"y"
>>> label_value("AATCGAGT")
"n"
